Would you kindly list pIC50 for each of these compounds?
Test system: A549
Test: Test Example 1 in vitro cytotoxic activity screening (CTG)
Assay type: cell-based, human
Settings: Homo sapiens; A549, CTG; read-out: IC50
One number for each entry, as −log10 of the molar value.

{"smiles notation": "C=C1C[C@@H]2CC[C@@]34C[C@H]5O[C@H]6[C@@H](O3)[C@H]3O[C@H](CC[C@@H]3O[C@H]6[C@H]5O4)CC(=O)C[C@@H]3[C@@H](OC)[C@@H](C[C@H](O)CNC(=O)C4(O)CC4)O[C@H]3C[C@H]3O[C@@H](CC[C@@H]1O2)C[C@@H](C)C3=C", "experimental readout": "pIC50", "value measured": 8.40}
{"smiles notation": "C=C1C[C@@H]2CC[C@@]34C[C@H]5O[C@H]6[C@@H](O3)[C@H]3O[C@H](CC[C@@H]3O[C@H]6[C@H]5O4)CC(=O)C[C@@H]3[C@@H](OC)[C@@H](C[C@H](O)COC(=O)c4ccc(CO)cc4)O[C@H]3C[C@H]3O[C@@H](CC[C@@H]1O2)C[C@@H](C)C3=C", "experimental readout": "pIC50", "value measured": 9.09}

The reported A549 pIC50 of C=C1C[C@@H]2CC[C@@]34C[C@H]5O[C@H]6[C@@H](O3)[C@H]3O[C@H](CC[C@@H]3O[C@H]6[C@H]5O4)CC(=O)C[C@@H]3[C@@H](OC)[C@@H](C[C@H](O)COC(=O)C4(O)CC4)O[C@H]3C[C@H]3O[C@@H](CC[C@@H]1O2)C[C@@H](C)C3=C is 8.75
